Each entry below carries its recorded Ki.
# STUDY_SYSTEM: human orexin 1 receptor (Homo sapiens, UniProt O43613)
# Construct: expressed in transfected cells
# Sequence (O43613 whole entry): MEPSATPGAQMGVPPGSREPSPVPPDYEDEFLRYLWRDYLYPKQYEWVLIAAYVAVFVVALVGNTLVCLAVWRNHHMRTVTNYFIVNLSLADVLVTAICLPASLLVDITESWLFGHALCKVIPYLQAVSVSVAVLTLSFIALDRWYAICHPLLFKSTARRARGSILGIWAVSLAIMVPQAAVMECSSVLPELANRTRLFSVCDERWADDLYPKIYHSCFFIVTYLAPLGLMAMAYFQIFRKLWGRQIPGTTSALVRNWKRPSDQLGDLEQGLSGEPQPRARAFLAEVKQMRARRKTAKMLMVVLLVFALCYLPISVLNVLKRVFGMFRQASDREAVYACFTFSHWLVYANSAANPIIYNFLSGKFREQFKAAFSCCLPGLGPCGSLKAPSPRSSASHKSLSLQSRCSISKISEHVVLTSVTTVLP
# PROTOCOL_DETAILS: Calcium accumulation in cells (FLIPR), antagonism of orexin A, human orexin 1 receptor
# Assay type: cell-based
# TEST_PARAMETERS: calcium accumulation, antagonism of orexin A, Cheng-Prusoff corrected; read-out: FLIPR hOx1R Ki
EXPERIMENTAL_ENDPOINT: Ki (µM)

compound=CCc1ccnc(N2CCC3(CC2)OCCN(Cc2c[nH]c4ccccc24)C3=O)n1 study_system="human orexin 1 receptor (Homo sapiens, UniProt O43613)" u=µM quantitative_readout=2.78
compound=Cc1cc(C#N)nc(N2CCC3(CC2)NCCN(Cc2c[nH]c4ccccc24)C3=O)n1 study_system="human orexin 1 receptor (Homo sapiens, UniProt O43613)" u=µM quantitative_readout=2.81
compound=COc1ccc2[nH]cc(CN3CCNC4(CCN(c5nc(C)cc(C)n5)CC4)C3=O)c2c1 study_system="human orexin 1 receptor (Homo sapiens, UniProt O43613)" u=µM quantitative_readout=0.494
compound="O=C1N(Cc2c[nH]c3ccccc23)CCCC12CCN(c1nc3ccccc3[nH]1)C2 (centres unmarked)" study_system="human orexin 1 receptor (Homo sapiens, UniProt O43613)" u=µM quantitative_readout=0.474
compound="COc1cc(N2CCC3(CCN(Cc4c[nH]c5ccccc45)C3=O)C2)n2nccc2n1 (centres unmarked)" study_system="human orexin 1 receptor (Homo sapiens, UniProt O43613)" u=µM quantitative_readout=2.41
compound=O=C1N(Cc2c[nH]c3ccccc23)CCC12CCN(c1nc3ccccc3[nH]1)CC2 study_system="human orexin 1 receptor (Homo sapiens, UniProt O43613)" u=µM quantitative_readout=4.97
compound="O=C1N(Cc2c[nH]c3ccccc23)CCC12CCN(c1nccc(-n3ccnc3)n1)C2 (centres unmarked)" study_system="human orexin 1 receptor (Homo sapiens, UniProt O43613)" u=µM quantitative_readout=1.89
compound="Cc1cc(C)nc(N2CCC3(CCN(Cc4c[nH]c5ccccc45)C3=O)C2)c1 (centres unmarked)" study_system="human orexin 1 receptor (Homo sapiens, UniProt O43613)" u=µM quantitative_readout=1.49
